Biological target: UniProt P35368
Sequence (P35368 1-520): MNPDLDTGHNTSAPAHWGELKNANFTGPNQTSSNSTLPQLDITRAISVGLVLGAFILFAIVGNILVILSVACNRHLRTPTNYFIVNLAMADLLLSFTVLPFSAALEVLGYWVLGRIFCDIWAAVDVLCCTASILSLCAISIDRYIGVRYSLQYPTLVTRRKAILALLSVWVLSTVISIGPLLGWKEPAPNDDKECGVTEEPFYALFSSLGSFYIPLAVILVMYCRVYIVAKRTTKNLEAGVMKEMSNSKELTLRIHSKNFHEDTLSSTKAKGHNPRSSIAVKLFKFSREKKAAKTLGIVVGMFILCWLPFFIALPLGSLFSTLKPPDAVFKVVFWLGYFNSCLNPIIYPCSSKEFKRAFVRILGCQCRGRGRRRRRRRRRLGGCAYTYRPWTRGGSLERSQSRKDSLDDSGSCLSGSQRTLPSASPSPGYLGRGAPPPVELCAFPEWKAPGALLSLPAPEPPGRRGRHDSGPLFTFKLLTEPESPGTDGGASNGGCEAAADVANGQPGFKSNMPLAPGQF
Form field: Ki (one value per entry).
QUANTITY_NAME: Ki (nM)

>>> recorded_result("O=S(=O)(N[C@H]1CC[C@@H](N2CCN(c3ccc(F)cc3OCC(F)(F)F)CC2)CC1)c1cc(Cl)ccc1F")
206
>>> recorded_result("COc1ccc(S(=O)(=O)N[C@H]2CC[C@H](N3CCN(c4ccccc4OC(C)C)CC3)CC2)cc1OC")
126
>>> recorded_result("COc1ccc(Br)cc1S(=O)(=O)N[C@H]1CC[C@@H](N2CCN(c3ccccc3OC(C)C)CC2)CC1")
42
>>> recorded_result("CC(C)Oc1ccccc1N1CCN([C@H]2CC[C@H](NS(=O)(=O)c3cccc(C(F)(F)F)c3)CC2)CC1 [Cpd 44]")
334
